system: HeLa Kyoto; experiment: solubility in G1/S (NP-40 vs SDS abundance) (log2 ratio); higher = more soluble; conditions: cell cycle stage: G1/S;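 further: HeLa Kyoto cells arrested at G1/S by double thymidine block, proteins quantified by TMT10plex mass spectrometry in mild NP-40 versus SDS extracts, three biological replicates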
Measured solubility in G1/S (log2) accompanies every entry in the list below.
Lab note: jot down the number only; don't add units.

Lab book: solubility in G1/S (log2) of MHSEAEESKEVATDVFNSKNLAVQAQKKILGKMVSKSIATTLIDDTSSEVLDELYRVTREYTQNKKEAEKIIKNLIKTVIKLAILYRNNQFNQDELALMEKFKKKVHQLAMTVVSFHQVDYTFDRNVLSRLLNECREMLHQIIQRHLTAKSHGRVNNVFDHFSDCEFLAALYNPFGNFKPHLQKLCDGINKMLDEENI [TNFAIP8] noted as 0.339

Lab book: solubility in G1/S (log2) of MGLELYLDLLSQPCRAVYIFAKKNDIPFELRIVDLIKGQHLSDAFAQVNPLKKVPALKDGDFTLTESVAILLYLTRKYKVPDYWYPQDLQARARVDEYLAWQHTTLRRSCLRALWHKVMFPVFLGEPVSPQTLAATLAELDVTLQLLEDKFLQNKAFLTGPHISLADLVAITELMHPVGAGCQVFEGRPKLATWRQRVEAAVGEDLFQEAHEVILKAKDFPPADPTIKQKLMPWVLAMIR [GSTT1] noted as 0.038

Lab book: solubility in G1/S (log2) of MAALAPLPPLPAQFKSIQHHLRTAQEHDKRDPVVAYYCRLYAMQTGMKIDSKTPECRKFLSKLMDQLEALKKQLGDNEAITQEIVGCAHLENYALKMFLYADNEDRAGRFHKNMIKSFYTASLLIDVITVFGELTDENVKHRKYARWKATYIHNCLKNGETPQAGPVGIEEDNDIEENEDAGAASLPTQPTQPSSSSTYDPSNMPSGNYTGIQIPPGAHAPANTPAEVPHSTGVASNTIQPTPQTIPAIDPALFNTISQGDVRLTPEDFARAQKYCKYAGSALQYEDVSTAVQNLQKALKLLTTGRE [VTA1] noted as 0.0799
